Data credit: patent US20090068290A1

Recorded Total cholesterol, Mean change (SD) by entry
- assay.text: Pooled metabolic analysis, 6-week studies: lipid profile
- settings: non-fasting, endpoint, 6-week studies; BX total, RISP 6 mg, OLZ 15 mg, HAL 10 mg

Here are 3 molecules together with their reported answers.
test_smiles=Cc1nc2n(c(=O)c1CCN1CCC(c3noc4cc(F)ccc34)CC1)CCCC2 readout_name="Total cholesterol, Mean change (SD)" result="−2.6 (0.8) mg/dL"
test_smiles=O=C(CCCN1CCC(O)(c2ccc(Cl)cc2)CC1)c1ccc(F)cc1 readout_name="Total cholesterol, Mean change (SD)" result="0.1 (0.7) mg/dL"
test_smiles=Cc1cc2c(s1)Nc1ccccc1N=C2N1CCN(C)CC1 readout_name="Total cholesterol, Mean change (SD)" result="−0.7 (1.0) mg/dL"

Requested field: Total cholesterol, Mean change (SD). Item: `O=c1[nH]c2cccc(N3CCN(Cc4cccc(-c5ccccc5)c4)CC3)c2o1`
−12.9 (0.8) mg/dL

====

- assay.text: Pooled metabolic analysis, 6-week studies: body weight
- settings: 6-week placebo controlled trials, endpoint, baseline BMI >30 kg/m^2; BX total doses, RISP 6 mg, OLZ 15 mg, HAL 10 mg
readout.name: Weight, Mean (SD) change from baseline

molecule="Cc1nc2n(c(=O)c1CCN1CCC(c3noc4cc(F)ccc34)CC1)CCCC2 [RISP]" result="1.6 (4.2) kg"
molecule="O=c1[nH]c2cccc(N3CCN(Cc4cccc(-c5ccccc5)c4)CC3)c2o1 [Bifeprunox]" result="−1.4 (3.9) kg"
molecule="Cc1cc2c(s1)Nc1ccccc1N=C2N1CCN(C)CC1 [OLZ]" result="3.3 (4.0) kg"

// moving on: another record for Weight, Mean (SD) change from baseline
Which value of Weight, Mean (SD) change from baseline has been reported for O=C(CCCN1CCC(O)(c2ccc(Cl)cc2)CC1)c1ccc(F)cc1 [HAL] in the records?
0.4 (2.1) kg

====

- assay.text: Pharmacokinetics of bifeprunox, pooled analysis and population PK
- Assay type: in vivo, human
- settings: human, in vivo; oral; read-out: mean plasma steady-state (elimination) half-life (converted)
readout.name: half-life

Suppose we examine the compound `O=c1[nH]c2cccc(N3CCN(Cc4cccc(-c5ccccc5)c4)CC3)c2o1` ; what half-life value has been reported?
~14 h

====

- assay.text: Pooled metabolic analysis, 6-week studies: body weight
- settings: 6-week placebo controlled trials, endpoint, baseline BMI All; BX total doses, RISP 6 mg, OLZ 15 mg, HAL 10 mg
Items are presented alongside their recorded Weight, Mean (SD) change from baseline.

Worked cases, Weight, Mean (SD) change from baseline given:
molecule="O=c1[nH]c2cccc(N3CCN(Cc4cccc(-c5ccccc5)c4)CC3)c2o1 [Bifeprunox]" result="−0. (3.2) kg"
molecule="O=C(CCCN1CCC(O)(c2ccc(Cl)cc2)CC1)c1ccc(F)cc1 [HAL]" result="−0.1 (2.1) kg"
molecule="Cc1nc2n(c(=O)c1CCN1CCC(c3noc4cc(F)ccc34)CC1)CCCC2 [RISP]" result="1.7 (3.3) kg"

What does the data say about its Weight, Mean (SD) change from baseline? Entry: Cc1cc2c(s1)Nc1ccccc1N=C2N1CCN(C)CC1 [OLZ]
2.4 (3.1) kg

====

- assay.text: Pharmacokinetics of bifeprunox, pooled analysis and population PK
- Format: in vivo, human
- settings: human, in vivo, po; read-out: mean plasma steady-state (elimination) half-life (converted)
readout.name: half-life (h)
Just the number in h, nothing appended.

Reported half-life for O=c1[nH]c2cccc(N3CCN(Cc4cccc(-c5ccccc5)c4)CC3)c2o1 [Bifeprunox] : what is it?
14.4

====

Readings of Triglycerides, Mean change (SD) for the listed compounds
- assay.text: Pooled metabolic analysis, 6-week studies: lipid profile
- settings: non-fasting, endpoint, 6-week studies; BX total, RISP 6 mg, OLZ 15 mg, HAL 10 mg

Would you please look over these solved cases?
test_smiles=O=C(CCCN1CCC(O)(c2ccc(Cl)cc2)CC1)c1ccc(F)cc1 readout_name="Triglycerides, Mean change (SD)" result="−2.7 (0.6) mg/dL"
test_smiles=Cc1cc2c(s1)Nc1ccccc1N=C2N1CCN(C)CC1 readout_name="Triglycerides, Mean change (SD)" result="24.6 (1.3) mg/dL"
test_smiles=O=c1[nH]c2cccc(N3CCN(Cc4cccc(-c5ccccc5)c4)CC3)c2o1 readout_name="Triglycerides, Mean change (SD)" result="−38.7 (1.3) mg/dL"

As a next step, examine the compound that follows.
Value lookup for Triglycerides, Mean change (SD); key = `Cc1nc2n(c(=O)c1CCN1CCC(c3noc4cc(F)ccc34)CC1)CCCC2`
−7.4 (1.4) mg/dL

====

- assay.text: Pooled metabolic analysis, 6-week studies: body weight
- settings: 6-week placebo controlled trials, endpoint, baseline BMI <18.5 kg/m^2; BX total doses, RISP 6 mg, OLZ 15 mg, HAL 10 mg
readout.name: Weight, Mean (SD) change from baseline

Before answering, review these 2 worked examples.
test_smiles=Cc1cc2c(s1)Nc1ccccc1N=C2N1CCN(C)CC1 result="1.0 (1.9) kg"
test_smiles=O=C(CCCN1CCC(O)(c2ccc(Cl)cc2)CC1)c1ccc(F)cc1 result="1.4 (1.3) kg"

Next, consider the following molecule.
Given the entry `O=c1[nH]c2cccc(N3CCN(Cc4cccc(-c5ccccc5)c4)CC3)c2o1` , report its measured Weight, Mean (SD) change from baseline.
0.0 (1.7) kg
